- experimental-system: pooled human IgG
Each record here notes measured Enzyme Activity Endpoint Assay (purified): Fab'2.
outcome-measure: Enzyme Activity Endpoint Assay (purified): Fab'2 (ng/µL)

>  <protein>
PRT-127 (protein) MRNATEAYAKEVPHQITSVWTKGVTPLTPEQFRYNNEDVIHAPYLANQGWYDITKTFNGKDNLLCGAATAGNMLHWWFDQNKTEIEAYLKKHPEKQKIIFNNQELFDLKAAIDTKDSQTNSQLFNYFRDKAFPNLSARQLGVMPDLVLDMFINGYYLNVFKTQSTDVNRPYQDKDKRGGIFDAVFTRGDQTTLLTARHDLKNKGLNEISTLIKQELTEGKALALSHTYANVSISHVINLWGADFNAEGNLEAIYVTDSDSNASIGMKKYFVGVNAHGKVAISAKKIEGENIGAQVLGLFTLSSGKDIWQKLS

>  <obs-value>
523

$$$$
>  <protein>
PRT-235 (protein) MEVVEVWPYGQNPNGKTEILSQTEDSESLQRLRDIEDFQAEKKMQNVVYTKWLDGVDVKDHDFRKIVDGNIAYYATPLLNGRGFYDINKDFNRDSDKCAAAVAANMFHYWLDINRDNVDRFLRQNPEKHGIIELPDGQLKLSDFLNTYESDHGYRDKSKLFDFISNNFNGPVWTDKLLDNYINGYAYNYKYGRTIEDPTKNTSKINFFKEVFNEKILTNNHSIRNQNEFSVLLSEALYTGKAIGLSYGPAGLRHSLGHIISVWGADLDADGNVVAIYVTDSDDKKLTIGDERVGLKRYKISTDDENRLRLTAYEETDNTGGQIRGLWTLDTGKYAWADYFDKTEQTGTDQAEQLEHHHHHH

>  <obs-value>
116

$$$$
>  <protein>
PRT-118 (protein) MRNATEAYNKETPKTITSVWTKGVTPPTPEQFTKQNEDVFHAPYVANQGWYDITKTFNGKDNLLCGAATAGNMLHWWFDQNKTEIENYLKKHPEKQKIIFNNQELFDLKAAIDTKDSQTNSALFNYFRDKAFPNLSARQLGVMPDHVLDMFINGYYLNVNKTQSTDVNRPYDDKDKRGGIFDAVFTRGDQTTLLTARHDLKNKGLNEISTLIKQELTEGRALALSHTYANVSISHVINLWGADFNAEGNLEAIYVTDSDANASIGMKKYFVGKNASGKVAISAKKIEGDNIGAQVLGLFTLSSGKDIWQKLS

>  <obs-value>
23

$$$$
>  <protein>
PRT-125 (protein) MRNATEAYAKEVPHQITSVWTKGVTPLTPEQFRYNNEDVFHAPYLANQGWYDITKTFDGKDNLLCGAATAGNMLHWWFDQNKTEIEAYLSKHPEKQKIIFNNQELFDLKAAIDTKDSQTNSQLFNYFRDKAFPNLSARQLGVMPDLVLDMFINGYYLNVFKTQSTDVNRPYQDKDKRGGIFDAVFTRGDQTKLLTARHDLKNKGLNDISTLIKQELTEGKALALSHTYANVSISHVINLWGADFNAEGNLEAIYVTDSDANASIGMKKYFVGVNAHGHVAISAKKIEGENIGAQVLGLFTLSSGKDIWQKLS

>  <obs-value>
609

$$$$
